# Target entity: Coagulation factor XII (Homo sapiens)
# Sequence (P00748 20-372 limits assumed): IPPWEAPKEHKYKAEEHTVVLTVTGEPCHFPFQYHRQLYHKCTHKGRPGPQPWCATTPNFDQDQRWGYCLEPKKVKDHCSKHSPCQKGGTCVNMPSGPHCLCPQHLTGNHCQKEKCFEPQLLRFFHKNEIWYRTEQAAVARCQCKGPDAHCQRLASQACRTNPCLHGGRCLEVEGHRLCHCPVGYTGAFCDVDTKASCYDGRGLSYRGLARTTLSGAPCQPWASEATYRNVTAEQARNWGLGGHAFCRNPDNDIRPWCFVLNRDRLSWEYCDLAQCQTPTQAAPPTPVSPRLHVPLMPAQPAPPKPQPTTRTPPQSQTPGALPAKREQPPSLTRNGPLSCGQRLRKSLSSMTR
# Sequence (P00748 373-615 limits assumed): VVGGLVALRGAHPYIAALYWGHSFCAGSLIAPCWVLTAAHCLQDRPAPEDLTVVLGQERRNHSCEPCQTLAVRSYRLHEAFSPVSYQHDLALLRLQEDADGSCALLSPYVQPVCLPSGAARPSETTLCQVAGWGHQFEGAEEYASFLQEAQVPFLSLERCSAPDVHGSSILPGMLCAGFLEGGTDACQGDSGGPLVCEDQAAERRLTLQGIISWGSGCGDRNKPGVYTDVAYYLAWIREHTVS
# Test: Factor XIIa Dose Response Confirmation from Single Well HTS. [Related pubchem assays (depositor defined):AID701]
# Type: functional
Calls of active or inactive are those of the source. Rule as the data show it: actives have a measured IC50 and inactives only a lower limit.
Reply using exactly one outcome from 1 for active, 0 for inactive

Compound	Assigned category
O=C(Nc1nc2n(n1)C(c1ccc(Cl)cc1)CC(c1ccc(Cl)cc1)N2)c1ccco1 (centres undefined)	0
O=C(c1ccccc1)N1CCCC(c2nc(O)c3nnn(Cc4ccccc4)c3n2)C1 (centres undefined)	0
CC(=O)c1ccc(OC(=O)c2ccc(Br)o2)cc1	1

Please turn your attention to the following entry.
Problem: Test call for this compound, please: O=C(NCc1ccccn1)c1cn(CCc2ccccc2)nn1
Solution: 0
